Ref: patent US20110301200A1

assay_target: TR-α (Homo sapiens, UniProt P10827)
Sequence (P10827 1-410 isoform P10827-2): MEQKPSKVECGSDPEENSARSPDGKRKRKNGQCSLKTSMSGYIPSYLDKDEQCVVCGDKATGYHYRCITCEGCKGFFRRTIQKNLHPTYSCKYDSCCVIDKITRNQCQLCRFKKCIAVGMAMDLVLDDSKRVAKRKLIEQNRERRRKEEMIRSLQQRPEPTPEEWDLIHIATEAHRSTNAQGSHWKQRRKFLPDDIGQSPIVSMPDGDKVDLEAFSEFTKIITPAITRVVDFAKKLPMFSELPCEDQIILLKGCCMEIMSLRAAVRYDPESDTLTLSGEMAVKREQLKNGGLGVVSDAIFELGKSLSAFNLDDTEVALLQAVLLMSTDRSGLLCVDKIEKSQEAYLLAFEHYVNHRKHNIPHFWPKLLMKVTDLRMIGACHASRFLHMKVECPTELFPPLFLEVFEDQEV
assay_remarks: In vitro TR-α activity (in-house protocol)
Type: cell-based
particulars: Conc. 1 nM; read-out: TR-α Fold Induction w.r.t T3(100 nm)

compound: CCC(C)c1cc(Oc2c(Br)cc(C=NOCC(=O)O)cc2Br)ccc1O (centres unmarked)
fold induction at 0.001 µM: 11.6

compound: CC(C)(ON=Cc1cc(Br)c(Oc2ccc(O)c(-c3ccccc3)c2)c(Br)c1)C(=O)O
fold induction at 0.001 µM: 9.45

compound: CCC(ON=Cc1cc(Br)c(Oc2ccc(O)c(C(C)CC)c2)c(Br)c1)C(=O)O (centres unmarked)
fold induction at 0.001 µM: 34.4

compound: O=C(O)CON=Cc1cc(Br)c(Oc2ccc(O)c(S(=O)(=O)N3CCCC3)c2)c(Br)c1
fold induction at 0.001 µM: 12.6

compound: O=C(O)CON=Cc1cc(Cl)c(Oc2ccc(O)c(Cc3ccccc3)c2)c(Cl)c1
fold induction at 0.001 µM: 14.2

compound: O=C(O)CON=Cc1cc(Br)c(Oc2ccc(O)c(C(=O)c3ccc(Br)cc3)c2)c(Br)c1
fold induction at 0.001 µM: 13.7

compound: O=C(O)CON=Cc1cc(Br)c(Oc2ccc(O)c(C(O)c3ccc(Br)cc3)c2)c(Br)c1 (centres unmarked)
fold induction at 0.001 µM: 20.4

compound: CC(C)c1cc(Oc2c(Cl)cc(C=NOCC(=O)O)cc2Cl)ccc1O
fold induction at 0.001 µM: 11.8

----------
assay_target: TR-α (Homo sapiens, UniProt P10827)
assay_remarks: In vitro TR-α activity (in-house protocol)
Type: cell-based
particulars: Conc. 100 nM; read-out: TR-α Fold Induction w.r.t T3(100 nm)
Reported fold induction at 0.1 µM values for a set of compounds

compound: CCC(C)c1cc(Oc2c(Br)cc(C=NOCC(=O)O)cc2Br)ccc1O (stereo not drawn)
fold induction at 0.1 µM: 60.6
//
compound: CC(ON=Cc1cc(Br)c(Oc2ccc(O)c(C(O)c3cccc(Cl)c3)c2)c(Br)c1)C(=O)O (stereo not drawn)
fold induction at 0.1 µM: 17.9
//
compound: CCC(C)c1cc(Oc2c(Br)cc(C=NOC(C)(C)C(=O)O)cc2Br)ccc1O (stereo not drawn)
fold induction at 0.1 µM: 119
//
compound: CCC(ON=Cc1cc(Br)c(Oc2ccc(O)c(C(C)C)c2)c(Br)c1)C(=O)O (stereo not drawn)
fold induction at 0.1 µM: 76.8
//
compound: O=C(O)CON=Cc1cc(Br)c(Oc2ccc(O)c(C(O)c3ccc(Cl)cc3)c2)c(Br)c1 (stereo not drawn)
fold induction at 0.1 µM: 29.9
//
compound: CC(C)NS(=O)(=O)c1cc(Oc2c(Br)cc(C=NOC(C)C(=O)O)cc2Br)ccc1O (stereo not drawn)
fold induction at 0.1 µM: 17.6
//
compound: CCC(ON=Cc1cc(Br)c(Oc2ccc(O)c(Cc3ccccc3)c2)c(Br)c1)C(=O)O (stereo not drawn)
fold induction at 0.1 µM: 66.2
//
compound: CC(C)(ON=Cc1cc(Br)c(Oc2ccc(O)c(-c3ccccc3)c2)c(Br)c1)C(=O)O
fold induction at 0.1 µM: 34.5
//
compound: CC(C)c1cc(Oc2c(Br)cc(C=NOCC(=O)O)cc2Br)ccc1O
fold induction at 0.1 µM: 93.8
//
compound: CC(ON=Cc1cc(Br)c(Oc2ccc(O)c(S(=O)(=O)N[C@@H]3C[C@H]4CC[C@@H]3C4)c2)c(Br)c1)C(=O)O (stereo partly drawn)
fold induction at 0.1 µM: 10.1
//
compound: CC(ON=Cc1cc(Cl)c(Oc2ccc(O)c(C(C)C)c2)c(Cl)c1)C(=O)O (stereo not drawn)
fold induction at 0.1 µM: 75
//
compound: CCC(ON=Cc1cc(Br)c(Oc2ccc(O)c(C(C)CC)c2)c(Br)c1)C(=O)O (stereo not drawn)
fold induction at 0.1 µM: 64.2

----------
assay_target: TR-α (Homo sapiens)
assay_remarks: In vitro TR-α activity (in-house protocol)
Format: cell-based
particulars: Conc. 10 nM; read-out: TR-α Fold Induction w.r.t T3(100 nm)
Think of 20 as a floor: if fold induction at 0.01 µM stands on it or above, it is label 1; beneath it, label 0.

compound: CC(ON=Cc1cc(Cl)c(Oc2ccc(O)c(C(C)C)c2)c(Cl)c1)C(=O)O (centres unmarked) [Example 8]
qualitative_label: label 1
//
compound: CC(ON=Cc1cc(Br)c(Oc2ccc(O)c(Cc3ccccc3)c2)c(Br)c1)C(=O)O (centres unmarked) [Example 16]
qualitative_label: label 1
//
compound: CCC(C)c1cc(Oc2c(Br)cc(C=NOC(C(=O)O)c3ccccc3)cc2Br)ccc1O (centres unmarked) [Example 18]
qualitative_label: label 1
//
compound: CC(C)NS(=O)(=O)c1cc(Oc2c(Br)cc(C=NOC(C)C(=O)O)cc2Br)ccc1O (centres unmarked) [Example 37]
qualitative_label: label 0
//
compound: O=C(O)CON=Cc1cc(Br)c(Oc2ccc(O)c(C(O)c3ccc(Cl)cc3)c2)c(Br)c1 (centres unmarked) [Example 29]
qualitative_label: label 1
//
compound: CCN(CC)S(=O)(=O)c1cc(Oc2c(Br)cc(C=NOC(C)C(=O)O)cc2Br)ccc1O (centres unmarked) [Example 38]
qualitative_label: label 0
//
compound: CC(C)c1cc(Oc2c(Br)cc(C=NOC(C)(C)C(=O)O)cc2Br)ccc1O [Example 12]
qualitative_label: label 1
//
compound: CCc1cc(Oc2c(Br)cc(C=NOC(C)C(=O)O)cc2Br)ccc1O (centres unmarked) [Example 25]
qualitative_label: label 1
//
compound: CCC(C)c1cc(Oc2c(Cl)cc(C=NOC(C)C(=O)O)cc2Cl)ccc1O (centres unmarked) [Example 23]
qualitative_label: label 1
//
compound: CC(C)c1cc(Oc2c(Br)cc(C=NOCC(=O)O)cc2Br)ccc1O [Example 3]
qualitative_label: label 1
//
compound: CC(ON=Cc1cc(Br)c(Oc2ccc(O)c(C(O)c3ccc(Cl)cc3)c2)c(Br)c1)C(=O)O (centres unmarked) [Example 27]
qualitative_label: label 0
//
compound: CC(C)c1cc(Oc2c(Cl)cc(C=NOCC(=O)O)cc2Cl)ccc1O [Example 1]
qualitative_label: label 1
//
compound: CCC(C)c1cc(Oc2c(Cl)cc(C=NOCC(=O)O)cc2Cl)ccc1O (centres unmarked) [Example 2]
qualitative_label: label 1
//
compound: CCC(ON=Cc1cc(Br)c(Oc2ccc(O)c(-c3ccccc3)c2)c(Br)c1)C(=O)O (centres unmarked) [Example 21]
qualitative_label: label 0
//
compound: CC(ON=Cc1cc(Br)c(Oc2ccc(O)c(C(O)c3cccc(Cl)c3)c2)c(Br)c1)C(=O)O (centres unmarked) [Example 34]
qualitative_label: label 0
//
compound: CC(ON=Cc1cc(Br)c(Oc2ccc(O)c(-c3ccccc3)c2)c(Br)c1)C(=O)O (centres unmarked) [Example 11]
qualitative_label: label 1
//
compound: CC(ON=Cc1cc(Br)c(Oc2ccc(O)c(S(=O)(=O)N3CCCC3)c2)c(Br)c1)C(=O)O (centres unmarked) [Example 42]
qualitative_label: label 0

----------
assay_target: TR-β (Homo sapiens, UniProt P10828)
Sequence (P10828 1-461): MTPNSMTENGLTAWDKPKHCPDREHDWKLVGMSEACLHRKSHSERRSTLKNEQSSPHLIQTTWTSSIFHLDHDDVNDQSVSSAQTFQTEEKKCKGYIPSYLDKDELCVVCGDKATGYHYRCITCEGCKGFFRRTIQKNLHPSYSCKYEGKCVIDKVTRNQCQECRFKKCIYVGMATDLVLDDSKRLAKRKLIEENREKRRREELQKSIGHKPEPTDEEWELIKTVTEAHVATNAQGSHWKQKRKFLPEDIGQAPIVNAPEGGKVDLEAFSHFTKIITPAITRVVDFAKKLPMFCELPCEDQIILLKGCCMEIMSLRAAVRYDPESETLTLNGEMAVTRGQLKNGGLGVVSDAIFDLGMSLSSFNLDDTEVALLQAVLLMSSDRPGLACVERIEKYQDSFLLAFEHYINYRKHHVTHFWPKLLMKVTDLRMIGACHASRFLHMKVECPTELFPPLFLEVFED
assay_remarks: In vitro TR-β activity (in-house protocol)
Format: cell-based
particulars: Conc. 100 nM; read-out: TR-β Fold Induction w.r.t T3(100 nm)
readout: fold induction at 0.1 µM

compound: CCC(ON=Cc1cc(Br)c(Oc2ccc(O)c(C(C)CC)c2)c(Br)c1)C(=O)O (centres unmarked) [Example 19]
assay_target: TR-β (Homo sapiens, UniProt P10828)
data_value: 86.2
//
compound: O=C(O)CON=Cc1cc(Br)c(Oc2ccc(O)c(C(=O)c3cccc(Cl)c3)c2)c(Br)c1 [Example 33]
assay_target: TR-β (Homo sapiens, UniProt P10828)
data_value: 72.5
//
compound: CCC(ON=Cc1cc(Br)c(Oc2ccc(O)c(C(C)C)c2)c(Br)c1)C(=O)O (centres unmarked) [Example 13]
assay_target: TR-β (Homo sapiens, UniProt P10828)
data_value: 86.7
//
compound: CC(ON=Cc1cc(Br)c(Oc2ccc(O)c(C(=O)c3ccc(Cl)cc3)c2)c(Br)c1)C(=O)O (centres unmarked) [Example 26]
assay_target: TR-β (Homo sapiens, UniProt P10828)
data_value: 41.2
//
compound: CCC(C)c1cc(Oc2c(Br)cc(C=NOC(C)(C)C(=O)O)cc2Br)ccc1O (centres unmarked) [Example 15]
assay_target: TR-β (Homo sapiens, UniProt P10828)
data_value: 118
//
compound: O=C(O)CON=Cc1cc(Br)c(Oc2ccc(O)c(Cc3ccccc3)c2)c(Br)c1 [Example 9]
assay_target: TR-β (Homo sapiens, UniProt P10828)
data_value: 60.2
//
compound: O=C(O)CON=Cc1cc(Br)c(Oc2ccc(O)c(C(O)c3ccc(Br)cc3)c2)c(Br)c1 (centres unmarked) [Example 32]
assay_target: TR-β (Homo sapiens, UniProt P10828)
data_value: 14.5
//
compound: CC(C)(ON=Cc1cc(Br)c(Oc2ccc(O)c(Cc3ccccc3)c2)c(Br)c1)C(=O)O [Example 22]
assay_target: TR-β (Homo sapiens, UniProt P10828)
data_value: 44.9
